Where do these numbers come from? They come from patent US5045566A.

- Tested on: Maize weevil [Sitophilus zeamais (Motschulsky)]
- experiment-summary: Maize weevil on dipped corn seeds (MW), 48 hours
- Assay type: in vivo
- particulars: percent in solution, adult weevils
- Procedure: The compounds in Tables 1 and 2 above were tested for insecticidal activity using the following testing procedures. LC50 values, based on the results of these tests and calculated according to dosage-mortality curves, are expressed in Table 3. Maize weevil [Sitophilus zeamais (Motschulsky)]: Test compounds were diluted in a 50:50 acetone:water solution. […] Mortality was recorded after 48 hours. […]
reported-endpoint: LC50 MW

Example cases with answers are listed next.
compound-structure	target	LC50 MW
CC(C)C(=Nc1ccc(OC(F)(F)F)cc1)OCc1ccc(F)c(Oc2ccc(F)cc2)c1	Maize weevil [Sitophilus zeamais (Motschulsky)]	0.0039%
CC(C)C(=Nc1ccc(F)c(Cl)c1)OCc1cccc(Nc2ccc(F)cc2)c1	Maize weevil [Sitophilus zeamais (Motschulsky)]	> 0.01%

Tested on Maize weevil [Sitophilus zeamais (Motschulsky)], the item CCC(=Nc1ccc(Cl)cc1)OCc1cccc(Oc2ccccc2)c1 showed LC50 MW equal to > 0.01%

Tested on Maize weevil [Sitophilus zeamais (Motschulsky)], the item CC(C)C(=Nc1cccc(C(F)(F)F)c1)OCc1cccc(Oc2ccc(F)cc2)c1 showed LC50 MW equal to > 0.01%

Tested on Maize weevil [Sitophilus zeamais (Motschulsky)], the item CC(C)C(=Nc1cccc(Cl)c1)OCc1cccc(Oc2ccc(F)cc2)c1 showed LC50 MW equal to > 0.01%

###

Measured LC50 TBW C (contact), listed per entry.
- System: Tobacco Budworm [Heliothis virescens (Fabricius)] larvae
- experiment-summary: Tobacco budworm larvae, contact (TBW-C), 5 days
- Assay type: in vivo
- particulars: percent in solution, second-instar larvae
Could you give me the number in %? Just the number is fine.

Data point: CC(C)C(=Nc1ccc(F)c(Cl)c1)OCc1cc(Oc2ccc(F)cc2)c(F)cc1F ; LC50 TBW C (contact) = 0.00025

Data point: CC(C)C(=Nc1cccc(C(F)(F)F)c1)OCc1ccc(F)c(Oc2ccccc2)c1 ; LC50 TBW C (contact) = 0.00075

Data point: CC(C)C(=Nc1ccc(F)c(Cl)c1)OCc1ccc(F)c(Oc2ccc(F)c(F)c2)c1 ; LC50 TBW C (contact) = 0.0002

Data point: CC(C)C(=Nc1ccc(F)c(Cl)c1F)OCc1ccc(F)c(Oc2ccccc2)c1 ; LC50 TBW C (contact) = 0.00025

Data point: CC(C)C(=Nc1ccc(I)cc1)OCc1cccc(Oc2ccc(F)cc2)c1 ; LC50 TBW C (contact) = 0.0013

###

Measured LC50 TBW C (contact), listed per entry.
- Tested on: Tobacco Budworm [Heliothis virescens (Fabricius)] larvae
- experiment-summary: Tobacco budworm larvae, contact (TBW-C), 5 days
- Type: in vivo
- particulars: percent in solution, second-instar larvae
- Description: The compounds in Tables 1 and 2 above were tested for insecticidal activity using the following testing procedures. LC50 values, based on the results of these tests and calculated according to dosage-mortality curves, are expressed in Table 3. Tobacco Budworm [Heliothis virescens (Fabricius)]: (a) Contact: Test compounds were diluted in a 50-50 acetone-water solution. […] The dishes were placed in a high humidity chamber for 5 days, and percent mortality of the larvae recorded. […]
Could you give me the number in %? Just the number is fine.

Example cases with answers are listed next.
molecule	LC50 TBW C (contact) (%)
CC(C)C(=Nc1ccc(F)cc1F)OCc1cccc(Oc2ccc(F)cc2)c1 [Compound 209]	0.005
CC(C)C(=Nc1ccc(F)c(Cl)c1)OCc1cccc(Oc2ccc(C#N)cc2)c1 [Compound 196]	0.001
CC(Cl)(Cl)C(=Nc1ccc(Cl)cc1)OCc1cccc(Oc2ccccc2)c1 [Compound 3]	0.009

Tested on Tobacco Budworm [Heliothis virescens (Fabricius)] larvae, the item CC(C)C(=Nc1ccc(F)cc1F)OCc1cccc(Oc2ccccc2)c1 [Compound 52] showed LC50 TBW C (contact) equal to 0.004

###

- System: Maize weevil [Sitophilus zeamais (Motschulsky)]
- experiment-summary: Maize weevil on dipped corn seeds (MW), 48 hours
- Assay type: in vivo
- particulars: percent in solution, adult weevils
Measured LC50 MW, listed per entry.

compound	LC50 MW
COCc1c(F)c(F)c(COC(=Nc2ccc(C(C)(C)C)cc2)C(C)C)c(F)c1F [Compound 544]	> 0.01%
CC(C)C(=Nc1cccc(Br)c1)OCc1ccc(F)c(Oc2ccc(Cl)cc2)c1 [Compound 386]	> 0.01%
ClCC(=Nc1ccc(Cl)cc1)OCc1cccc(Oc2ccccc2)c1 [Compound 31]	> 0.01%
CC(C)C(=Nc1ccc(Cl)c(Cl)c1)OCc1cccc(Oc2ccc(F)cc2)c1 [Compound 37]	0.009%
CCc1ccc(N=C(OCc2ccc(F)c(Oc3ccccc3)c2)C(C)C)cc1 [Compound 360]	> 0.01%

Data point: CC(C)C(=Nc1cccc(Br)c1)OCc1ccc(F)c(Oc2ccccc2)c1 [Compound 387] ; LC50 MW = > 0.01%

Data point: CC(C)C(=Nc1ccc(F)c(C(F)(F)F)c1)OCc1cccc(Oc2ccc(F)cc2)c1 [Compound 120] ; LC50 MW = > 0.01%

Data point: CC(C)C(=Nc1ccc(C(F)(F)F)cc1)OCc1ccc(F)c(Oc2ccccc2)c1 [Compound 337] ; LC50 MW = 0.0053%

###

- Tested on: Maize weevil [Sitophilus zeamais (Motschulsky)]
- experiment-summary: Maize weevil on dipped corn seeds (MW), 48 hours
- Assay type: in vivo
- particulars: percent in solution, adult weevils
reported-endpoint: LC50 MW

Example cases with answers are listed next.
molecule	LC50 MW
CC(C)C(=Nc1cccc(Cl)c1)OCc1ccc(F)c(Oc2ccc(F)cc2)c1 [Compound 341]	> 0.01%
Cc1ccc(N=C(OCc2ccc(F)c(Oc3ccc(F)cc3)c2)C(C)C)cc1Cl [Compound 357]	0.01%
CC(C)C(=Nc1ccc(OCC(F)(F)F)cc1)OCc1ccc(F)c(Oc2ccccc2)c1 [Compound 422]	> 0.01%
CSc1cccc(N=C(OCc2ccc(F)c(Oc3ccccc3)c2)C(C)C)c1 [Compound 362]	> 0.01%
CC(C)C(=Nc1cccc(F)c1)OCc1ccc(F)c(Oc2ccc(F)cc2)c1 [Compound 342]	> 0.01%

Data point: CC(C)C(=Nc1ccc(Br)c(Br)c1)OCc1ccc(F)c(Oc2ccc(F)cc2)c1 [Compound 383] ; LC50 MW = > 0.01%

Data point: CC(C)C(=Nc1ccc(F)c(Br)c1)OCc1ccc(F)c(Oc2ccc(F)cc2)c1 [Compound 273] ; LC50 MW = 0.004%

Data point: CC(C)C(=Nc1ccc(C(C)(C)C)cc1)OCc1ccc(F)c(Oc2ccc(Cl)cc2)c1 [Compound 301] ; LC50 MW = > 0.01%

###

Measured LC50 RWW, listed per entry.
- System: Rice water weevil [Lissorhoptrus oryzophilus (Kuschel)]
- experiment-summary: Rice water weevil topical (RWW), 48 hours
- Format: in vivo
- particulars: μg of test compound per weevil, female adults

Example cases with answers are listed next.
compound-structure	target	LC50 RWW
CC(C)C(=Nc1ccc(F)c(Cl)c1F)OCc1cccc(Oc2ccc(F)cc2)c1	Rice water weevil [Lissorhoptrus oryzophilus (Kuschel)]	> 2.5 µg
CC(C)C(=Nc1cc(F)cc(F)c1)OCc1cccc(Oc2ccccc2)c1	Rice water weevil [Lissorhoptrus oryzophilus (Kuschel)]	> 2.5 µg
CC(C)C(=Nc1ccc(F)c(F)c1F)OCc1ccc(F)c(Oc2ccc(F)cc2)c1	Rice water weevil [Lissorhoptrus oryzophilus (Kuschel)]	> 2.5 µg

Now consider a different compound.
Data point: CC(C)C(=Nc1ccc(C(F)(F)F)cc1)OCc1ccc(F)c(Oc2ccc(Cl)cc2)c1 ; LC50 RWW = 0.06 µg

###

- Test system: Maize weevil [Sitophilus zeamais (Motschulsky)]
- experiment-summary: Maize weevil on dipped corn seeds (MW), 48 hours
- Assay type: in vivo
- particulars: percent in solution, adult weevils
Measured LC50 MW, listed per entry.

molecule	LC50 MW
CCOc1ccc(N=C(OCc2cccc(Oc3ccccc3)c2)C(C)C)cc1 [Compound 371]	> 0.01%
C#CCc1c(F)c(F)c(COC(=Nc2ccc3c(c2)OCO3)C(C)C)c(F)c1F [Compound 547]	> 0.01%
CC(C)C(=Nc1ccccc1)OCc1cccc(Oc2ccccc2)c1 [Compound 43]	> 0.01%
CCc1ccc(N=C(OCc2cccc(Oc3ccc(F)cc3)c2)C(C)C)cc1Cl [Compound 438]	> 0.01%
CC(C)C(=Nc1ccc(F)c(Cl)c1F)OCc1ccc(F)c(Oc2ccc(F)cc2)c1 [Compound 330]	0.001%
CCOc1ccc(N=C(OCc2cccc(Oc3ccccc3)c2)C(C)C)cc1Cl [Compound 368]	> 0.01%

Data point: Cc1ccc(N=C(OCc2cccc(Oc3ccccc3)c2)C(C)C)cc1 [Compound 156] ; LC50 MW = > 0.01%

Data point: CCc1ccccc1N=C(OCc1cccc(Oc2ccc(F)cc2)c1)C(C)C [Compound 411] ; LC50 MW = > 0.01%

Data point: Cc1cc(N=C(OCc2ccc(F)c(Oc3ccc(Cl)cc3)c2)C(C)C)ccc1Br [Compound 407] ; LC50 MW = > 0.01%
